- Experiment: qHTS for small molecules that induce genotoxicity in ELG1 expressing cells: Confirmatory Assay for Cherry-picked Compounds; further: nearly all actives have a fitted effect of over 35% in size
- Test Parameters: ELG1-luciferase reporter cells, luminescence, 16 h; series mostly up to 46.1 µM
Inconclusive results are not listed. Active and inactive are the calls of the source. The call rests on the fitted dose curve; in most records, active means well fitted activation curve with a large enough effect; inconclusive means small, poorly fitted or top-dose-only effect; inactive means no such curve, though single readings can be large or run the other way.
Outcome codes: True (active), False (inactive)

Compound: C[C@@H]1CC2[C@@H]3CCC4=CC(=O)C=C[C@]4(C)[C@@]3(F)[C@@H](O)C[C@]2(C)[C@@]1(O)C(=O)NCCCCCCOC[C@H]1O[C@@H](n2cnc3cc(Cl)c(Cl)cc32)[C@@H]2OC(C)(C)O[C@@H]21 (stereo not given in full)
Assigned Category: True
//
Compound: CC(/C=C/C(=O)NO)=C\[C@@H](C)C(=O)c1ccc(N(C)C)cc1
Assigned Category: True
//
Compound: CCCCCn1ncc2c3sc(C)cc3n(C)c2c1=O
Assigned Category: True
//
Compound: CN(Cc1ccco1)c1ncnc2ccc(-c3cccc(Cl)c3)cc12
Assigned Category: False
//
Compound: Cc1ccc2nc3sc(C(=O)NCc4ccco4)cc3cc2c1
Assigned Category: True
//
Compound: O=C1CCN(Cc2ccccc2)C=C1c1ccc2ccccc2c1
Assigned Category: True
//
Compound: O=S(=O)(c1c(F)cccc1F)N1CCN(S(=O)(=O)c2c(F)cccc2F)CC1
Assigned Category: True
//
Compound: COc1ccc(/C=C/c2cnc3ccccc3n2)cc1OC
Assigned Category: True
//
Compound: CS(=O)c1ccc(/C=C2\C=Cc3ccccc32)cc1 (stereo not given)
Assigned Category: True
//
Compound: O=C(CSc1nnc(-c2ccc(F)cc2)o1)Nc1ccc(S(=O)(=O)N2CCCCCC2)cc1
Assigned Category: False
//
Compound: CC1CCc2nc(-c3cc4ccc(O)cc4oc3=O)sc2C1 (stereo not given)
Assigned Category: True
//
Compound: CCn1c(C)cc(C(=O)COC(=O)c2cccnc2SC)c1C
Assigned Category: True
//
Compound: O=S(=O)(c1ccc2ccccc2c1)N1CCN(S(=O)(=O)c2c(F)cccc2F)CC1
Assigned Category: True
//
Compound: O=C1CCCC(=NNC(=O)c2cc3ccccc3cc2O)C1
Assigned Category: True
//
Compound: CN(C)c1cccc(-c2ccnc(N3CCC(C(N)=O)CC3)n2)c1
Assigned Category: True
//
Compound: Cc1ccc(C(=O)NN=CC(=O)c2ccccc2)c(C)c1
Assigned Category: True
//
Compound: Cc1cc2cc3c(cc2nc1SCC(=O)N1CCOCC1)OCO3
Assigned Category: False
//
Compound: Cc1ccc(OCC(=O)Nc2ccc(-c3nc4ncccc4o3)cc2)cc1
Assigned Category: True
//
Compound: O=C(/C=C/C#Cc1cccc(NS(=O)(=O)c2ccccc2)c1)NO
Assigned Category: True
//
Compound: O=c1c2ccccc2oc2c1oc1ccccc12
Assigned Category: True
//
Compound: O=C(Nc1ccccn1)c1sc2ccc([N+](=O)[O-])cc2c1Cl
Assigned Category: True
//
Compound: O=C(N[C@H]1/C=C\[C@@H](O)CCCC1)OCc1ccccc1
Assigned Category: True
//
Compound: ICC[n+]1csc2ccccc21
Assigned Category: True
//
Compound: CC(=O)Nc1ccc(SCC(=O)c2cc(C)n(Cc3cccs3)c2C)cc1
Assigned Category: True
//
Compound: N#Cc1ccsc1NC(=O)CSc1nncs1
Assigned Category: True
//
Compound: Oc1cc2cc(-c3csc(-c4ccc(F)cc4)n3)cc3c2n1CCC3
Assigned Category: True
//
Compound: O=c1c(-c2ccc(F)cc2)coc2c3c(ccc12)OCCO3
Assigned Category: True
//
Compound: C(=C\c1c[nH]c2ccccc12)/c1ccc2ccccc2n1
Assigned Category: True
//
Compound: O=c1c2ccccc2oc2ccc(-c3ccc4cc[nH]c4c3)cc12
Assigned Category: True
//
Compound: Cc1ccc(NC(=O)c2ccc(OC(=O)c3cc4ccccc4o3)cc2)cc1
Assigned Category: True
//
Compound: O=c1nc2sc3ccccc3n2c(=O)n1-c1cccc(Cl)c1
Assigned Category: True
//
Compound: O=c1[nH]c(=O)n([C@@H]2O[C@H](CO)[C@@H](O)[C@H]2O)cc1F
Assigned Category: True
//
Compound: CCOC(=O)c1c(C)[nH]c(C(=O)NNC(=O)c2ccccc2F)c1C
Assigned Category: True
//
Compound: Cc1ccc2nc(-c3ccc(C)c(NC(=O)COc4ccc(Br)cc4)c3)oc2c1
Assigned Category: True
//
Compound: Fc1ccc2cc(CCO[C@H]3CCCCO3)ncc2c1
Assigned Category: True
//
Compound: Cn1cccc1C(=O)OCC(=O)c1c[nH]c2ccccc12
Assigned Category: True
//
Compound: O=C(Nc1ccccn1)c1sc2ccccc2c1Cl
Assigned Category: True
//
Compound: CCOC(=O)N1CCN(C(=O)CSCC(=O)Nc2nc(-c3ccccc3)cs2)CC1
Assigned Category: False
//
Compound: CSc1ccc(C(=O)c2[nH]c(=O)[nH]c2C)cc1
Assigned Category: True
//
Compound: CCN(CC)S(=O)(=O)c1ccc(N2CCOCC2)c(NC(=O)c2[nH]c(C)c(C(C)=O)c2C)c1
Assigned Category: True
//
Compound: NC(=O)C1CCN(c2cc(-c3ccc4c(c3)OCCCO4)ncn2)CC1
Assigned Category: True
//
Compound: O=C(CSc1nnc(Cc2ccccc2)o1)Nc1ccc(Br)cn1
Assigned Category: False
//
Compound: Oc1ccc(/C=C/c2c(F)cccc2F)c2cccnc12
Assigned Category: True
//
Compound: COc1ccc(C2CC(c3ccncc3)=NN2c2ccc(S(N)(=O)=O)cc2)cc1 (stereo not given)
Assigned Category: True
//
Compound: COc1ccc(/C=C/c2ccc3ccccc3n2)c(OC)c1
Assigned Category: True

* * *

- Experiment: qHTS for small molecules that induce genotoxicity in ELG1 expressing cells: Confirmatory Assay for Cherry-picked Compounds; further: nearly all actives have a fitted effect of over 35% in size; further: potency means the concentration at half of the fitted maximal effect
- Test Parameters: ELG1-luciferase reporter cells, luminescence, 16 h; series mostly up to 46.1 µM
Results filed as inconclusive are left out. Activity calls are given as the source filed them. The call rests on the fitted dose curve; in most records, active means well fitted activation curve with a large enough effect; inconclusive means small, poorly fitted or top-dose-only effect; inactive means no such curve, though single readings can be large or run the other way.
Property: Potency

Molecule: COc1ccccc1/C=C/c1nc2ccccc2o1
Property: Potency
Result: 3.53 µM (active)
--
Molecule: COc1ccc2cc(C[C@@H]3CC[C@@H](CO)O3)ccc2c1
Property: Potency
Result: 12.5 µM (active)
--
Molecule: CC(C)CN(C)c1ccc(/C=C2\C=Cc3ccccc32)cc1
Property: Potency
Result: 14.1 µM (active)
--
Molecule: COc1ccc(/C=C/C(=O)O/N=C(\N)c2ccccn2)cc1OC
Property: Potency
Result: 14.1 µM (active)
--
Molecule: c1ccc(-c2cc3cc4c(cc3cn2)OCO4)cc1
Property: Potency
Result: 2.81 µM (active)
--
Molecule: COc1cccc(/C=C/c2cnc3ccccc3n2)c1OC
Property: Potency
Result: 0.397 µM (active)
--
Molecule: O=C(CSCC(=O)N1CCN(c2ccccc2)CC1)Nc1nc(-c2ccc(Cl)s2)cs1
Property: Potency
Result: inactive
--
Molecule: CCCCCCC[C@@H](C/C=C/CCC(=O)N(C)C/C(=C/Cl)C/C(=C\C(=O)N1CC(OC)=CC1=O)OC)OC
Property: Potency
Result: 1.99 µM (active)
--
Molecule: CN(C)c1ccc(C=Nc2cncc3ccccc23)cc1
Property: Potency
Result: 0.889 µM (active)
--
Molecule: O=C(Cc1ccc(OCCCc2ccccc2)cc1)NO
Property: Potency
Result: 15.8 µM (active)
--
Molecule: COc1ccc(S(=O)(=O)Nc2cccc3cccnc23)c([N+](=O)[O-])c1
Property: Potency
Result: inactive
--
Molecule: Oc1ccc(CCc2ccccc2F)c2cccnc12
Property: Potency
Result: 14.1 µM (active)
--
Molecule: COc1cc(/C=C(\C#N)C(=O)Nc2cccc(C(=O)O)c2)ccc1OCc1ccc(Cl)cc1
Property: Potency
Result: 8.89 µM (active)
--
Molecule: CN(C)c1ccc(/C=C/c2ccnc3ccc(F)cc23)cc1
Property: Potency
Result: 0.354 µM (active)
--
Molecule: Nc1ccc(/C=C/c2ccc3cccnc3c2)cc1
Property: Potency
Result: 0.5 µM (active)
--
Molecule: COCC(C)n1c(C)cc(C(=O)COC(=O)c2cc(=O)[nH]c3ccccc23)c1C (configuration not stated)
Property: Potency
Result: 2.23 µM (active)
--
Molecule: CN(C)c1ccc(C(=O)OCC(=O)c2ccc[nH]2)cc1
Property: Potency
Result: 14.1 µM (active)
